Attribute: IC50
Tested on: A375 multi-cell spheroids with HUVEC/MSC, viability
test method notes: Anticancer human tumor A375 cell line growth inhibition [GQUAD];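 also: spheroids exposed to compounds for seven days before readout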
condition context: curve of first compound; second compound 0.0316 µM
Text: DNA G-quadruplex Stabilizer Agents in Combinations in Complex Spheroids A high-throughput screen of multi-cell type tumor spheroids was designed to identify active combinations of DNA G-quadruplex stabilizer agents and targeted small molecules. […] Compounds. […] If the clinical Cmax for an agent had not been determined, the highest concentration tested was 10 microM. […]
quantity measured: IC50

molecule="CC[C@@]1(O)C(=O)OCc2c1cc1n(c2=O)Cc2cc3c(CN(C)C)c(O)ccc3nc2-1 + CN(C)c1ccc(Nc2c3ccc(NC(=O)CCN4CCCC4)cc3nc3cc(NC(=O)CCN4CCCC4)ccc23)cc1" measurement="0.0447 µM"
molecule="Nc1ccn(C2OC(CO)C(O)C2(F)F)c(=O)n1 (stereo not given) + Cc1cnc(CNC(=O)c2c(=O)c3ccc(N4CCCN(C)CC4)nc3n3c2sc2ccccc23)cn1" measurement="< 0.0316 µM"
molecule="O=c1[nH]cc(F)c(=O)[nH]1 + CN(C)c1ccc(Nc2c3ccc(NC(=O)CCN4CCCC4)cc3nc3cc(NC(=O)CCN4CCCC4)ccc23)cc1" measurement="> 10 µM"
molecule="CC(C)n1c(=O)n(C)c2cnc3cc(F)c(-c4ccc(OCCCN5CCCCC5)nc4)cc3c21 + CN(C)c1ccc(Nc2c3ccc(NC(=O)CCN4CCCC4)cc3nc3cc(NC(=O)CCN4CCCC4)ccc23)cc1" measurement="> 10 µM"
molecule="CC1COCCN1c1cc(-c2ccnn2C)c2ccnc(-c3ccn[nH]3)c2n1 (stereo not given) + CN(C)c1ccc(Nc2c3ccc(NC(=O)CCN4CCCC4)cc3nc3cc(NC(=O)CCN4CCCC4)ccc23)cc1" measurement="0.308 µM"

Reference for the values: PubChem BioAssay AID2060485
